Data origin, for the record: ChEMBL document CHEMBL5303304

# Test system: HEK-293T
# experiment-summary: Incucyte cell viability with HEK293T; further: unitless GR value; below 1 slowed growth and below 0 cell loss
# Type: toxicity, cell-based
# measurement-parameters: human, 12 h, 10 µM, compound concentration 10 uM, replicate number 2
# if measured Growth Rate < 0.8: Yes  # else: No

Consider the worked cases shown below.
compound	assigned-class
O=C1NC(=NCc2cccs2)SC1=Cc1ccc2ncccc2c1	No
CC(C)c1cnn2c(NCc3ccccc3)cc(NCCCCCCN)nc12.Cl	Yes
Fc1ccc(-c2c3cccc(C(F)(F)F)c3nn2Cc2ccc(F)cc2Cl)cc1	Yes
CN(C)C(=O)c1sc2nc(N3CCC(S(C)(=O)=O)CC3)cc(C(F)(F)F)c2c1N	No
COc1cc(C(=O)NC2CCN(C)CC2)ccc1Nc1ncc(C(F)(F)F)c(NCc2ccc(C)cc2N(C)S(C)(=O)=O)n1.O=CO.O=CO	Yes
O=C1CN(c2ccccc2F)C(NCCN2CCOCC2)=C1c1nc2cc(Br)ccc2c(=O)[nH]1	No
O=C1NC(Nc2ccccc2)=N/C1=C\c1ccc2c(c1)OCO2	Yes
C[C@@H](CN1CCC(Cc2ccccc2)CC1)[C@@H](O)c1ccc(O)cc1	No

Growth Rate strictly < 0.8 for this compound? `Cc1nc2c([nH]1)c(=O)n(C)c(=O)n2Cc1ccco1`
Yes

Take the compound `COc1ccc(-c2cc3c(C)nc(N)nc3n([C@H]3CC[C@H](OCCO)CC3)c2=O)cn1` and say whether its Growth Rate is less than 0.8.
Yes

Determine if NC(=O)C1CCCc2c1[nH]c1ccc(Cl)cc21 (centres undefined) shows Growth Rate strictly lower than 0.8.
Yes

API: query returns whether the compound falls strictly under 0.8 in Growth Rate. Query: CC(=O)N1CCN(c2ccc(OCC3COC(Cn4ccnc4)(c4ccc(Cl)cc4Cl)O3)cc2)CC1 (centres undefined)
Yes

====

# Test system: HEK-293T
# experiment-summary: Incucyte cell viability with HEK293T; further: unitless GR value; below 1 slowed growth and below 0 cell loss
# Assay type: toxicity, cell-based
# measurement-parameters: human, 18 h, 10 µM, compound concentration 10 uM, replicate number 1
Reported Growth Rate values for a set of compounds
Lab note: write the figure by itself, no unit.

// worked examples, Growth Rate included
compound	measured-target	Growth Rate
C=CC(=O)Nc1cc(-c2nn(C3CCC(N4CCN(C(C)=O)CC4)CC3)c3ncnc(N)c23)ccc1Oc1ccccc1 (configuration not stated)	HEK-293T	-0.4
Cc1ccccc1Oc1cc(-n2c(=O)cc(C(F)(F)F)[nH]c2=O)c2ccccc2c1Cl [BAY-069]	HEK-293T	0.72
CN1CCN(c2ccc(-n3cc(-c4ccncc4OCC4CCNCC4)cn3)cc2)CC1	HEK-293T	0.14
CC#CC(=O)N1CCN(c2nc(-c3ccc(Oc4ccccc4)cc3)c(C(N)=O)s2)CC1	HEK-293T	0.61
CC(=O)Nc1c(F)cc(C(=O)N[C@H]2CC[C@H](O)CC2)cc1O[C@@H](C)c1ccccc1 [GSK046]	HEK-293T	0.95
CC(C)(C)c1cc(NC(=O)c2csc(Nc3ccccn3)n2)no1	HEK-293T	0.08

Consider the compound Cc1[nH]nc2ccc(-c3cncc(OCC(N)Cc4c[nH]c5ccccc45)c3)cc12 (configuration not stated) tested on HEK-293T; state its Growth Rate.
0.65

Enter measured Growth Rate, system HEK-293T, for the compound shown: COc1ccc(Cl)cc1[C@]1(F)C(=O)Nc2cc(C(F)(F)F)ccc21 [FLINDOKALNER]
0.42

Identify measured Growth Rate obtained with HEK-293T for O=C(Nc1ccc(OC(F)(F)Cl)cc1)c1cnc(N2CC[C@@H](O)C2)c(-c2ccn[nH]2)c1 [ASCIMINIB] .
-0.06

Please respond with reported Growth Rate (system HEK-293T) for N#CN1CC[C@@H](C(=O)Nc2nc3c(s2)CN(C(=O)CN=[N+]=[N-])CC3)C1 [JYQ88] .
1

Please respond with reported Growth Rate (system HEK-293T) for `Nc1ncnc2c1c(COc1cccc(Cl)c1)nn2C1CCOCC1` .
0.83

====

Listed here: items and their measured Growth Rate.
# Test system: U2OS
# experiment-summary: Incucyte cell viability with U2OS; further: unitless GR value; below 1 slowed growth and below 0 cell loss
# Assay type: toxicity, cell-based
# measurement-parameters: human, 12 h, 10 µM, compound concentration 10 uM, replicate number 2
Give the figure only, with no unit attached.

The cases that follow already have their Growth Rate on record.
compound	Growth Rate
Oc1c(CN2CCCC2)cc(COCc2ccccc2)c2cccnc12	0.58
O=C(Nc1ccc(S(=O)(=O)Nc2nccs2)cc1)C(c1ccccc1)c1ccccc1	0.82
Cc1csc(S(=O)(=O)N(CC(C)C)c2cc3c(cc2OCc2ccc(C(=O)O)cc2)CCC3)n1	0.88
O=C(O)c1ccnc(N2CC(O)(c3ccc(OCc4c(-c5c(Cl)cccc5Cl)noc4C4CC4)cc3Cl)C2)c1 [CILOFEXOR]	1
CC(C)NC(=O)[C@H]1CCC[C@H]1Nc1nc(Nc2ccc(CN(C)C)cc2)ncc1Br.Cl	0.15

Provide Growth Rate, system U2OS, entry `Cn1cc(-n2cnc3c(NCc4nc5cc(Cl)c(Cl)cc5[nH]4)nc(N4CCOCC4)nc32)cn1`
-0.72

Retrieve Growth Rate on U2OS; query `CCCCc1c(-c2ccccc2)nc(N)nc1-c1ccc(OCc2ccccc2)c(F)c1F`
0.36

Tell me Growth Rate of CC(C)(c1ccc(O)cc1)c1ccc(O)cc1 [BISPHENOL A] when tested on U2OS.
1

Give Growth Rate only, for `CN(Cc1cccc(F)c1CNc1cc(F)c(S(=O)(=O)Nc2cscn2)c(F)c1)C(C)(C)C` , using U2OS data.
0.86

====

# Growth Rate per record follows
# Tested on: Fibroblast
# experiment-summary: Incucyte cell viability with human fibroblast; further: unitless GR value; below 1 slowed growth and below 0 cell loss
# Assay type: toxicity, cell-based
# measurement-parameters: 6 h, 10 µM, compound concentration 10 uM, replicate number 1
When you answer, write just the number.

compound	measured-target	numeric-readout
COCc1nc2cnc3cc(-c4c(C)noc4C)c(OC[C@H]4CCNC4)cc3c2n1[C@H](C)c1ccccc1	Fibroblast	0.26
O=C(Nc1ccc(Cl)nc1)c1ccc(Cl)cc1	Fibroblast	-0.32

Consider the record given below.
Give a short answer stating reported Growth Rate for `COCCN1CCN(CCn2ccc(Nc3ncc4c(n3)-c3c(nn(C)c3-c3ccccc3)C[C@H]4C)n2)CC1` .
0.35

====

# reported Growth Rate; entries follow
# Test system: Fibroblast
# experiment-summary: Incucyte cell viability with human fibroblast; further: unitless GR value; below 1 slowed growth and below 0 cell loss
# Assay type: toxicity, cell-based
# measurement-parameters: 24 h, 10 µM, compound concentration 10 uM, replicate number 1
Answer field: number only, no words.

Consider the reported Growth Rate for these compounds:
compound	numeric-readout
O=S1(=O)NCN(C2CC2)c2ccc(F)cc21	0.6
Cc1cn([C@@H](C)CC#N)c(=O)c2cc(Cn3nc(C(F)F)cc3Cl)nn12	0.85
C[C@@H](NC(=O)Cc1ccc(C2CC2)cc1)c1ccc(OCC(F)(F)F)cn1	0.8
COC1(C#Cc2ccc(Cl)c(-c3ncc4c(n3)-c3sc(NC(C)=O)nc3CC4)c2)CCN(C)CC1	-0.11

Would you kindly look at the next entry?
Tell me its Growth Rate given C=CC(=O)Nc1cc(-c2nn(C3CCC(N4CCN(C(C)=O)CC4)CC3)c3ncnc(N)c23)ccc1Oc1ccccc1 (stereo not given) as the entry.
0.21

====

In this section we review reported Growth Rate values for a set of molecules.
# System: Fibroblast
# experiment-summary: Incucyte cell viability with human fibroblast; further: unitless GR value; below 1 slowed growth and below 0 cell loss
# Type: toxicity, cell-based
# measurement-parameters: 24 h, 10 µM, compound concentration 10 uM, replicate number 1

Observe how each entry below is paired with its result.
molecule	Growth Rate
CSc1ccc(C[C@@H](C)C(=O)O)cc1Nc1nc(N2CC[C@H](N(C)C)C2)cc(C(F)F)c1C#N.O=C(O)C(F)(F)F	0.3
O=C(Nc1snnc1C(=O)Nc1ccc(N2CCCC2)cc1)c1cncc(C(F)(F)F)c1	0.96
CC(C)Oc1ccc(Cc2ccc(NC3=NCCN3)cc2)cc1	0.26
CCCS(=O)(=O)Nc1ccc(F)c(Nc2ncnc3cnc(-n4cnc(C)c4)nc23)c1F	0.53
C[C@H](C[C@H](N)C(=O)O)C(=O)O [2S,4R-4-METHYLGLUTAMATE]	0.42
COc1ccc(Br)cc1S(=O)(=O)NC(=O)/C=C/c1cc(Cl)ccc1Cc1ccc2ccccc2c1	0.91
COc1cc(F)ccc1-c1ncnc(Nc2cccc(C[S@](C)(=N)=O)c2)n1	0.09
CC(=O)Oc1ccc2c(c1)[C@@]1(C)CCC[C@](C)(C(=O)OC(=O)[C@@]3(C)CCC[C@]4(C)c5cc(OC(C)=O)ccc5CC[C@@H]34)[C@@H]1CC2 [ACETYL PODOCARPIC ACID ANHYDRIDE]	0.96
Cn1nccc1-c1ccc(Sc2cccc(C3(C(N)=O)CCOCC3)c2)cc1	0.22
Nc1nc2cc(-c3cc(Cl)ccc3Oc3cc(F)c(S(=O)(=O)Nc4ncns4)cc3F)ccc2[nH]1	0.45

Please look at the following molecule next.
// output Growth Rate; input `Cl.Clc1cc2cc(c1)-c1cnn3ccc(nc13)NCCOCCO2` ; system Fibroblast
-0.13
